- Tested on: Zymoseptoria tritici (SEPTTR-184)
- protocol text: Cyp51 dsRNA tile (fragment) foliar application bioassay (Example 6)
- Assay type: in vivo
- study conditions: 3 days curative; rate 3.125 ppm; average of 2 trials
Measured Disease Control (%) SEPTTR-184 3DC values are reported for all entries that follow.
measurement type: Disease Control (%) SEPTTR-184 3DC

{"columns": ["molecule", "measurement type", "assay result"],
 "data": [
  ["MgCyp51-T2: dsRNA tile of Zymoseptoria tritici Cyp51, 165 bp, location 48-212 (nucleic acid, listed as Zymoseptoria tritici) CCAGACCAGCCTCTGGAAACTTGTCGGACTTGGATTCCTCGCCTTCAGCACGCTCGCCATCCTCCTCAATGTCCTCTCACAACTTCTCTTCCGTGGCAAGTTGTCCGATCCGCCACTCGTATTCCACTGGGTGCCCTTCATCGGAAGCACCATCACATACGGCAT", "Disease Control (%) SEPTTR-184 3DC", 76],
  ["YFP: non-target dsRNA control (YFP, yellow fluorescent protein coding region) (nucleic acid, double-stranded RNA; synthesized partial coding region) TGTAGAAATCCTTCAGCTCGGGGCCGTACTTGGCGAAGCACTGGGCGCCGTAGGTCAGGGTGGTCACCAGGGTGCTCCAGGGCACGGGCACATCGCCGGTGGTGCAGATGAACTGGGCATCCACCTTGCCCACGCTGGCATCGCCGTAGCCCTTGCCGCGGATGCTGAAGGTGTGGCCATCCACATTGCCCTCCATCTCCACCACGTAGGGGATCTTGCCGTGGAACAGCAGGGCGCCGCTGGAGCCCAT", "Disease Control (%) SEPTTR-184 3DC", 15],
  ["MgCyp51-T11: dsRNA tile of Zymoseptoria tritici Cyp51, 172 bp, location 775-946 (nucleic acid, listed as Zymoseptoria tritici) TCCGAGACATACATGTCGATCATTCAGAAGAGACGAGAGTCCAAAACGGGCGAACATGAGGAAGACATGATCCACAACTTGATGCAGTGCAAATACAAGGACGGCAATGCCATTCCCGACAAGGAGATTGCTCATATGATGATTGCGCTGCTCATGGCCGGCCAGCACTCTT", "Disease Control (%) SEPTTR-184 3DC", 47],
  ["MgCyp51-T4: dsRNA tile of Zymoseptoria tritici Cyp51, 178 bp, location 647-824 (nucleic acid, listed as Zymoseptoria tritici) AGGGCTTCGACTCGTCTTTCGCGGACCTCTACCACTACCTCGATATGGGATTCACACCGATCAACTTTATGCTTCCGTGGGCGCCCCTTCCCCAGAACCGACGCCGCGATTATGCGCAGAAGAAGATGTCCGAGACATACATGTCGATCATTCAGAAGAGACGAGAGTCCAAAACGGG", "Disease Control (%) SEPTTR-184 3DC", 59],
  ["MgCyp51-T13: dsRNA tile of Zymoseptoria tritici Cyp51, 119 bp, location 1517-1635 (nucleic acid, listed as Zymoseptoria tritici, long dsRNA tile, purified, chemistry not given here) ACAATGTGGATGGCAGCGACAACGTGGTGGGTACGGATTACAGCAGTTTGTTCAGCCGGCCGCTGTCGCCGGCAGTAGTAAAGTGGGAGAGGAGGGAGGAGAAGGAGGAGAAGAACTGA", "Disease Control (%) SEPTTR-184 3DC", 45],
  ["MgCyp51-T7: dsRNA tile of Zymoseptoria tritici Cyp51, 111 bp, location 1490-1600 (nucleic acid, listed as Zymoseptoria tritici, long dsRNA tile, purified, chemistry not given here) CGACGATGGTTCGCGATTTCAAGTTTTACAATGTGGATGGCAGCGACAACGTGGTGGGTACGGATTACAGCAGTTTGTTCAGCCGGCCGCTGTCGCCGGCAGTAGTAAAGT", "Disease Control (%) SEPTTR-184 3DC", 46],
  ["MgCyp51-T1: dsRNA tile of Zymoseptoria tritici Cyp51, 232 bp, location 166-397 (nucleic acid, listed as Zymoseptoria tritici) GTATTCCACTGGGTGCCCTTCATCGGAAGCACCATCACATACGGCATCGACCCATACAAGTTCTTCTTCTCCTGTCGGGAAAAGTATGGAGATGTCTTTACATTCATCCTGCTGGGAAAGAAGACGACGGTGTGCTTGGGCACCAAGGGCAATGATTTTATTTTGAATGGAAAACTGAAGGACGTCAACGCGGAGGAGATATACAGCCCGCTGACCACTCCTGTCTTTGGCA", "Disease Control (%) SEPTTR-184 3DC", 71],
  ["MgCyp51-T10: dsRNA tile of Zymoseptoria tritici Cyp51, 172 bp, location 345-516 (nucleic acid, listed as Zymoseptoria tritici) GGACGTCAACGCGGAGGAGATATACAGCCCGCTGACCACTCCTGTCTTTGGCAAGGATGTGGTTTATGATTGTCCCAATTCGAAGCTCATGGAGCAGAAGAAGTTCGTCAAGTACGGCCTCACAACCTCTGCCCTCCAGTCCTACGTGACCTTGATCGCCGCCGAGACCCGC", "Disease Control (%) SEPTTR-184 3DC", 31],
  ["MgCyp51-T3: dsRNA tile of Zymoseptoria tritici Cyp51, 230 bp, location 450-679 (nucleic acid, listed as Zymoseptoria tritici) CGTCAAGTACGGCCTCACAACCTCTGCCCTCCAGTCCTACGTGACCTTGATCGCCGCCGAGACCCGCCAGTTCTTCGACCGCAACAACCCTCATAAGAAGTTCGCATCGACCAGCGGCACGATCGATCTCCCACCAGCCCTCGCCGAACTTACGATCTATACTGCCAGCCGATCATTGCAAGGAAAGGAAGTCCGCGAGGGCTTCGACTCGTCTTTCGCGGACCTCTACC", "Disease Control (%) SEPTTR-184 3DC", 73]
]}
